The reported numbers originate from patent US20210246204A1.

target_or_system: human Siglec-7 on primary human monocyte-derived dendritic cells (human, UniProt Q9Y286 19-467)
Sequence (Q9Y286 19-467): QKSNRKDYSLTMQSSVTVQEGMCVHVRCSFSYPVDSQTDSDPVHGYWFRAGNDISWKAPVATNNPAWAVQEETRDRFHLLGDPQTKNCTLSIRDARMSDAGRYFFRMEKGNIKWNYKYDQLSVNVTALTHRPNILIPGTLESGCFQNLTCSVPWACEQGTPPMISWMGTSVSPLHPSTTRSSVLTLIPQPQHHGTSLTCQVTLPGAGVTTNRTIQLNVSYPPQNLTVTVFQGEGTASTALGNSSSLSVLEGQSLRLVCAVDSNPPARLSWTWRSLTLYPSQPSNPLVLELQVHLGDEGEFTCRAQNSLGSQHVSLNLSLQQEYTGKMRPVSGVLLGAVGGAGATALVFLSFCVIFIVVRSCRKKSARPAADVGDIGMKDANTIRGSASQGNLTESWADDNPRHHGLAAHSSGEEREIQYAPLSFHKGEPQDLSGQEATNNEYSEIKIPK
protocol_details: cell-based or functional assay
observed_property: Receptor downregulation, (EC50) (pM)
Please state the figure in pM; there is no need to write the unit.

Here is how some binders turned out for Receptor downregulation, (EC50) (pM).
{"columns": ["binder", "unit_info", "Receptor downregulation, (EC50) (pM)"],
 "data": [
  ["S7AB-H8.30 (antibody, V domains shown) VH: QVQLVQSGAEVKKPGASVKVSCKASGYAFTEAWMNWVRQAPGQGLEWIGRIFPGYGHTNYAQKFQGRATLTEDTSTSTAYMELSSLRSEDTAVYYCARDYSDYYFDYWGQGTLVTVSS VL: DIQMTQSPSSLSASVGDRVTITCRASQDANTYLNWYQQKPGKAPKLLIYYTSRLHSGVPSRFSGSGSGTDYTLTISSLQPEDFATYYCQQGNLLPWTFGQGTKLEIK", "pM", 126],
  ["S7AB-H8.40 (antibody, V domains shown) VH: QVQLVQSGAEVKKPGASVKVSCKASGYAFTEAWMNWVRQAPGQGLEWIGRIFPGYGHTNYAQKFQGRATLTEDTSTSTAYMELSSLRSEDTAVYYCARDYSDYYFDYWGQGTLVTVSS VL: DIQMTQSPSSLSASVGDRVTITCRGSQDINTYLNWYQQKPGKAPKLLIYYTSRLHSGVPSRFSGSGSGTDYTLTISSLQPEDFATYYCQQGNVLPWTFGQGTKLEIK", "pM", 115]
]}

Then this binder:
Consider the binder shown here: S7AB-H8.14 (antibody, V domains shown) VH: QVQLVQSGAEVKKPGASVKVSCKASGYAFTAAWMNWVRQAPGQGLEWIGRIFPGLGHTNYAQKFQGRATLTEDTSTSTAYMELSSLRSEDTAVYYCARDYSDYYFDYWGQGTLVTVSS VL: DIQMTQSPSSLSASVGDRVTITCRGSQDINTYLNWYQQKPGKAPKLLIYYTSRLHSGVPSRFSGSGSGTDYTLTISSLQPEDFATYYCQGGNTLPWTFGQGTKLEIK What is its recorded Receptor downregulation, (EC50) (pM)?
1950
